Data credit: paper PMC6750895

- MEASURED TARGET: MsCI4 (Magnetospirillum gryphiswaldense, UniProt A4TVL0)
- Sequence (A4TVL0 1-124): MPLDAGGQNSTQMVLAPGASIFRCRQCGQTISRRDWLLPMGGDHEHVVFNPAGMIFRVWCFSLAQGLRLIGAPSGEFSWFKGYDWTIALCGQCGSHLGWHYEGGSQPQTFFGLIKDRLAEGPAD
# reported pKi; entries follow
By convention, pKi is the negative base-10 log of a molar concentration.

Prompt: Quick one: pKi for N[C@H]1CC[C@@H](COC(=O)NC2CC(=O)NC2=O)CC1 (stereo partly drawn) [16a] ?
Response: 4.70

Prompt: GET /values?readout=pKi&item= NCc1ccc(COC(=O)NC2CCC(=O)NC2=O)cc1.O=C(O)C(F)(F)F (stereo not drawn) [11b]
Response: 5.00

Prompt: Value lookup for pKi; key = N[C@H]1CC[C@@H](COC(=O)NC2CCC(=O)NC2=O)CC1 (stereo partly drawn) [16b]
Response: 5.30
